- study.system: T1, CD3ε homodimer protein (human, UniProt P07766 23-126, limits assumed)
- T1 construct: Whole entry named for the human CD3 epsilon chain
- T1 sequence (P07766 23-126 limits assumed): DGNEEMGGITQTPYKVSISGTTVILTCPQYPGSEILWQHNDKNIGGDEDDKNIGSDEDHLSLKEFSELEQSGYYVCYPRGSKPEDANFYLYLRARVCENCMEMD
- experiment.description: SPR, CD3e immobilized
endpoint.name: KD ratio to GLS3000
Please give only the number in your answer, with no unit.

GLS3000 S25E (antibody, IgG1, name in Kabat numbering, V domains shown) VH: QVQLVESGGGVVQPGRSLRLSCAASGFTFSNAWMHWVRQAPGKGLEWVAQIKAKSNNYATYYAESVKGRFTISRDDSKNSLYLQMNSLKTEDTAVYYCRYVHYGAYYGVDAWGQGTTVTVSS VL: DIVMTQSPLSLPVTPGEPASISCRESQSLVHSNRNTYLHWYQQKPGQAPRLLIYKVSNRFSGVPDRFSGSGSGTDFTLKISRVEAEDVGVYYCGQGTQVPYTFGQGTKLEIK; 6.54
GLS3000 L33P (antibody, IgG1, name in Kabat numbering, V domains shown) VH: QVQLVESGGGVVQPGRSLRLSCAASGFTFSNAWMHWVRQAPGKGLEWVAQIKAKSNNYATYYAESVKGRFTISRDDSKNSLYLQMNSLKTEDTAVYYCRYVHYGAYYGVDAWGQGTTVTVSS VL: DIVMTQSPLSLPVTPGEPASISCRSSQSLVHSNRNTYPHWYQQKPGQAPRLLIYKVSNRFSGVPDRFSGSGSGTDFTLKISRVEAEDVGVYYCGQGTQVPYTFGQGTKLEIK; 12.7

Now for a further binder.
[Q] Report KD ratio to GLS3000 for GLS3000 G89Y (antibody, IgG1, name in Kabat numbering, V domains shown) VH: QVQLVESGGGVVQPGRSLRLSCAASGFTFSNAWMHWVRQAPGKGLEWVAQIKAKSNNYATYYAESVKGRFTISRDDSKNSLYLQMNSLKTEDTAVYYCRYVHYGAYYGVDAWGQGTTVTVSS VL: DIVMTQSPLSLPVTPGEPASISCRSSQSLVHSNRNTYLHWYQQKPGQAPRLLIYKVSNRFSGVPDRFSGSGSGTDFTLKISRVEAEDVGVYYCYQGTQVPYTFGQGTKLEIK please.
[A] 1.32
